The values you see were collected from patent US11332470B2.

# method_notes: Mouse brain uptake assay (pharmacokinetics and brain penetration after IV administration)
# Assay type: in vivo, Male CD1 Mice
# details: male, CD1, plasma; mouse, 3 mg/kg IV, 0-24 h, 4 time points; read-out: t½ (half life) (converted)
# Procedure: Example 15: Pharmacokinetics and Brain Penetration Experiment to Determine Brain and Plasma Concentrations of Compounds after IV Administration to Male CD1 Mice or Male SD Rats The study design (9 animals) consisted of administrating the drug (IV: 3 mg/kg (5 mL/kg) via tail vein injection) and collecting samples at terminal bleeding for plasma and brain at 0.083, 0.5 and 1 h. […]
readout_type: half-life (min)
Numbers only, in min.

> print(dat)
                                   molecule  recorded.value
1  Cc1cccnc1C1CCCN1Cc1cn2c(N3CCN(C)C4(CC4)C3)cccc2n1 (centres unmarked)             257

Now consider a different molecule.
Q. Find the recorded half-life belonging to Cc1cccnc1C1CCCN1Cc1nc2cccc(N3CCN(C4CC4)CC3)c2[nH]1 (centres unmarked) and report it.
A. 16.5
